The values you see were collected from patent US8993768B2.

system tested: HIV-1 RT RNase H (Human immunodeficiency virus type 1 group M subtype B, UniProt P04585)
Construct: RT is a p66/p51 heterodimer comprised of asymmetrically-organized subunits processed from the 165 kDa gag/pol polyprotein precursor; (His)6; made in house; host or cells: Escherichia coli
experiment description: Cleavage of the HIV-1 polypurine tract (PPT) primer, PPT/U3 junction
Format: biochemical
recorded conditions: 20 μM inhibitor
Experimental: FIG. 2A depicts a schematic model of RNA/DNA substrate, indicating the RNase H cleavage site at the PPT/U3 junction (< >). The PPT is indicated by the shaded box. FIG. 2B depicts the quantification of PPT cleavage data. All inhibitors were evaluated at 20 μM. IC50 values were determined as previously reported (Budihas, S. R., et al., Nucleic Acids Res., 33(4):1249-56 (2005)), using an 18-nucleotide 3′-flourescein-labeled RNA annealed to a complementary 18-nucleotide 5′-dabsyl-labeled DNA. […]
readout name: inhibition of PPT/U3 cleavage (in words)

Check out these entries, answers already filled in.
>  <compound>
Cc1cc(O)c(=O)c(O)c2c1CC(C(C)(O)Cn1ccnc1)CC2 (stereo not shown) [Compound 2]

>  <system tested>
HIV-1 RT RNase H (Human immunodeficiency virus type 1 group M subtype B, UniProt P04585)

>  <result>
less active

$$$$
>  <compound>
Cc1cc(O)c(=O)c(O)c2c1CC(C(C)NCc1ccccc1)CC2 (mixture of isomers) [Compound 14]

>  <system tested>
HIV-1 RT RNase H (Human immunodeficiency virus type 1 group M subtype B, UniProt P04585)

>  <result>
less active

$$$$
>  <compound>
Cc1cc(O)c(=O)c(O)c2c1CC(C(C)(O)C[S+]([O-])Cc1ccccc1)CC2 (stereo not shown) [Compound 10]

>  <system tested>
HIV-1 RT RNase H (Human immunodeficiency virus type 1 group M subtype B, UniProt P04585)

>  <result>
less active

$$$$
>  <compound>
Cc1cc(O)c(=O)c(O)c2c1CC(C(C)(O)CNCc1ccccc1F)CC2 (mixture of isomers) [Compound 4]

>  <system tested>
HIV-1 RT RNase H (Human immunodeficiency virus type 1 group M subtype B, UniProt P04585)

>  <result>
less active

$$$$
>  <compound>
CCN(CC)CC(C)(O)C1CCc2c(c(C)cc(O)c(=O)c2O)C1 (mixture of isomers) [Compound 3]

>  <system tested>
HIV-1 RT RNase H (Human immunodeficiency virus type 1 group M subtype B, UniProt P04585)

>  <result>
ineffective

$$$$

Turning now to a further compound:
Item: Cc1cc(O)c(=O)c(O)c2c1CC(C(C)(O)CS(=O)(=O)c1ccccc1)CC2 (mixture of isomers) [Compound 11] | inhibition of PPT/U3 cleavage (in words): ineffective
